Test system: MIA PaCa-2 cells
experimentSummary: Cellular viability assay (Cell Titer Fluor)
Assay type: cell-based
protocolConditions: Homo sapiens, MIA PaCa-2, 72 h, 72 hours incubation
measurementType: IC50

[ask] Form field: reported IC50 of `COc1ccc(F)cc1-c1nc(CNC(=O)c2cc(F)ccc2OC(F)(F)F)n[nH]1`
[reply] < 1 µM

[ask] Queued: `COc1ccccc1-c1nc(CNC(=O)c2cccc(F)c2OC(F)F)n[nH]1`
[reply] < 1 µM

[ask] Proceed to `O=C(NCc1n[nH]c(-c2cccs2)n1)c1nccnc1N1CC(F)(F)C1`
[reply] > 10 µM

[ask] Subsequent entry: `O=C(NCc1n[nH]c(-c2cccs2)n1)c1ccccc1OC(F)(F)F`
[reply] > 10 µM

* * *

Attribute: pIC50
System: MIA PaCa-2 cells
experimentSummary: Cellular viability assay (Cell Titer Fluor)
Assay type: cell-based
protocolConditions: Homo sapiens, MIA PaCa-2, 72 h, 72 hours incubation
pIC50: −log10 of the molar value.

[ask] If you can, please state the reported pIC50 value of COc1ccc(F)cc1-c1nc(CNC(=O)c2cccc3c2OC(F)(F)O3)n[nH]1 [Compound 131] .
[reply] > 6.00

[ask] Then what about the compound Cc1cscc1-c1cc(CNC(=O)c2ccccc2OC(F)(F)F)n[nH]1 [Compound 16] ?
[reply] < 5.00

[ask] What about this compound? CN1CCN(c2ccccc2C(=O)NCc2cc(-c3cccs3)[nH]n2)CC1 [Compound 71]
[reply] 5.00 to 6.00

[ask] Then this compound: CCOc1ccc(Br)cc1-c1nc(CNC(=O)c2ccccc2OC(F)F)n[nH]1 [Compound 59]
[reply] < 5.00

[ask] Same again, this time with COc1ccccc1-c1nc(S(=O)(=O)NC(=O)c2ccccc2OC(F)(F)F)n[nH]1 [Compound 123]
[reply] 5.00 to 6.00

* * *

pIC50 listing for selected molecules.
Test system: MIA PaCa-2 cells
experimentSummary: Cellular viability assay (Cell Titer Fluor)
Assay type: cell-based
protocolConditions: Homo sapiens, MIA PaCa-2, 72 h, 72 hours incubation
pIC50: −log10 of the molar value.

O=C(NCc1cc(-c2cccs2)[nH]n1)c1ccc(O)cc1C(F)(F)F
< 5.00
O=C(NCc1n[nH]c(-c2cccc(O)c2O)n1)c1ccccc1OC(F)F
5.00 to 6.00
CCOc1ccc(F)cc1-c1cc(CNC(=O)c2ccccc2OC(F)(F)F)n[nH]1
5.00 to 6.00

[ask] GET /values?readout=pIC50&system=MIA PaCa-2 cells&item= `O=C(NCc1cc(-c2cccs2)[nH]n1)c1ccccc1OC(F)F`
[reply] < 5.00

[ask] Repeat for the following molecule: `COc1c(F)cc(F)cc1-c1cc(CNC(=O)c2ccccc2OC(F)(F)F)n[nH]1`
[reply] 5.00 to 6.00

[ask] Would you kindly repeat that for `CCOc1ccccc1-c1nc(CNC(=O)c2ccccc2OC(F)(F)F)n[nH]1` ?
[reply] > 6.00

[ask] For `COc1ccc(F)cc1-c1nc(CNC(=O)c2cc(C#N)ccc2OC(F)F)n[nH]1` then?
[reply] > 6.00

[ask] Now give it for `COc1ccc(F)cc1-c1nc(CNC(=O)c2cnccc2OC(F)F)n[nH]1` too.
[reply] 5.00 to 6.00

[ask] Again, but for `COc1ccccc1-c1nc(CNC(=O)c2cccnc2OC(F)F)n[nH]1`
[reply] > 6.00

[ask] Also, `O=C(NCc1n[nH]c(-c2cc(F)ccc2O)n1)c1ccccc1OC(F)(F)F` please.
[reply] > 6.00

[ask] One more molecule: `O=C(NCc1cc(-c2ccccc2O)[nH]n1)c1cc(F)ccc1N1CCCCC1`
[reply] > 6.00

[ask] Can you handle `COc1ncccc1-c1cc(CNC(=O)c2ccccc2OC(F)(F)F)n[nH]1` next?
[reply] < 5.00

[ask] Same read-out for `O=C(NCc1cc(-c2cccs2)[nH]n1)c1cc(F)ccc1N1CCCC1` ?
[reply] > 6.00

[ask] Record: `COc1ccc(-c2cc(CNC(=O)c3ccccc3OC(F)(F)F)n[nH]2)c(OC)c1`
[reply] < 5.00

[ask] Consider next the molecule `COc1ccccc1-c1nc(S(=O)(=O)NC(=O)c2ccccc2OC(F)F)n[nH]1` in the same way.
[reply] 5.00 to 6.00

[ask] // same read-out, input: `Cc1sccc1-c1cc(CNC(=O)c2ccccc2OC(F)(F)F)n[nH]1`
[reply] < 5.00

[ask] Input `Cc1cn[nH]c1-c1cc(CNC(=O)c2ccccc2OC(F)(F)F)n[nH]1`
[reply] < 5.00

[ask] Item: `O=C(NCc1cc(-c2csc(Cl)c2)[nH]n1)c1ccccc1OC(F)(F)F`
[reply] < 5.00

* * *

# pIC50 values compiled below
Test system: MIA PaCa-2 cells
experimentSummary: Cellular viability assay (Cell Titer Fluor)
Assay type: cell-based
protocolConditions: Homo sapiens, MIA PaCa-2, 72 h, 72 hours incubation
pIC50: −log10 of the molar value.

The cases that follow already have their pIC50 on record.
COc1ccncc1-c1cc(CNC(=O)c2ccccc2OC(F)(F)F)n[nH]1
5.00 to 6.00
Cc1cccc(C(=O)NCc2cc(-c3cccs3)[nH]n2)c1N1CCC(F)(F)C1
5.00 to 6.00
O=C(NCc1cc(-c2cccs2)[nH]n1)c1ccccc1OC(F)(F)F
< 5.00
O=C(NCc1n[nH]c(-c2cccs2)n1)c1ccccc1N1CC(F)(F)C1
< 5.00
CC(C)Oc1ccc(F)cc1-c1cc(CNC(=O)c2cc(F)ccc2N2CCCC2)n[nH]1
> 6.00
O=C(NCc1cc(-c2cccs2)[nH]n1)c1ccccc1N1CCS(=O)(=O)CC1
< 5.00
COc1ccccc1-c1nc(CNC(=O)c2cc(C#N)ccc2OC(F)F)n[nH]1
> 6.00
O=C(NCc1cc(-c2cccnc2O)[nH]n1)c1ccccc1OC(F)(F)F
< 5.00
COc1ccccc1-c1cc(CNC(=O)c2ccccc2N2CCCCC2)n[nH]1
> 6.00
CCOc1ccc(F)cc1-c1cc(CNC(=O)c2cc(F)ccc2N2CCCC2)n[nH]1
> 6.00

[ask] Consider the molecule shown here: `CC(C)Oc1ccc(F)cc1-c1cc(CNC(=O)c2ccccc2OC(F)(F)F)n[nH]1` What is its recorded pIC50?
[reply] < 5.00

[ask] For `COc1cnccc1-c1cc(CNC(=O)c2ccccc2OC(F)(F)F)n[nH]1` then?
[reply] < 5.00

[ask] Param item: `CCOc1ccc(F)cc1-c1cc(CNC(=O)c2cc(F)ccc2N2CCCCC2)n[nH]1`
[reply] > 6.00

* * *

System: MIA PaCa-2 cells
experimentSummary: Cellular viability assay (Cell Titer Fluor)
Assay type: cell-based
protocolConditions: Homo sapiens, MIA PaCa-2, 72 h, 72 hours incubation
pIC50: −log10 of the molar value.
measurementType: pIC50

Cc1ccc(N2CCCC(F)(F)C2)c(C(=O)NCc2cc(-c3cccs3)[nH]n2)c1
> 6.00
COc1ccc(F)cc1-c1nc(CNC(=O)c2cc(F)ccc2OC(F)F)n[nH]1
> 6.00
O=C(NCc1n[nH]c(-c2cccs2)n1)c1nccnc1N1CCC(F)(F)CC1
< 5.00
O=C(NCc1cc(-c2cccs2)[nH]n1)c1ccccc1N1CCCC1
> 6.00
O=C(NCc1cc(-c2cccs2)[nH]n1)c1cccc(C(F)(F)F)c1N1CCCCC1
5.00 to 6.00
COc1ccccc1-c1nc(CNC(=O)c2cnccc2OC(F)F)n[nH]1
5.00 to 6.00
COc1ccccc1-c1cc(CNC(=O)c2ccccc2OC(F)(F)F)n[nH]1
> 6.00
O=C(NCc1n[nH]c(-c2cccs2)n1)c1ccccc1N1CCC(F)(F)C1
> 6.00

// below: pIC50 requested for another molecule
[ask] Please give the measured pIC50 for this molecule: `CCOc1ccccc1-c1nc(CNC(=O)c2ccccc2OC(F)F)n[nH]1`
[reply] > 6.00

* * *

Tested on: MIA PaCa-2 cells
experimentSummary: Cellular viability assay (Cell Titer Fluor)
Type: cell-based
protocolConditions: Homo sapiens, MIA PaCa-2, 72 h, 72 hours incubation
Procedure: Cell viability were performed using the Cell Titer Fluor™ Assays (Promega G6080). MIA PaCa-2 cells are grown in DMEM media with 10% FBS, 1% Pen/Strep/Amphotericin B. Cells are trypsinized and counted using the Nexcelom cellometer. 5,000 cells/100 μl are plated per well in Greiner black/clear 96-well plates. […] For each test compound condition, triplicate technical replicates are used. […] Fluorescence is then read on the plate reader with excitation wavelength of 390 nm and emission wavelength of 505 nm. […]
measurementType: IC50

Solved entries:
COc1ccc(O)cc1-c1nc(CNC(=O)c2ccccc2OC(F)F)n[nH]1
1000 to 10000 nM
O=C(NCc1cc(-c2cccc3cn[nH]c23)[nH]n1)c1ccccc1OC(F)(F)F
> 10000 nM
COc1ccccc1-c1nc(CNC(=O)c2cccc3c2OC(F)(F)O3)n[nH]1
< 1000 nM
O=C(NCc1cc(-c2cccs2)[nH]n1)c1cc(C(F)(F)F)ccc1N1CCCC(F)(F)C1
< 1000 nM
COc1ccccc1-c1cc(CNC(=O)c2cc(F)ccc2N2CCCCC2)n[nH]1
< 1000 nM

[ask] State its IC50 on MIA PaCa-2 cells: `O=C(NCc1cc(-c2cc(O)ccc2O)[nH]n1)c1ccccc1OC(F)(F)F`
[reply] > 10000 nM

[ask] Entry to check: `CC(C)Oc1ccc(F)cc1-c1cc(CNC(=O)c2cc(F)ccc2N2CCCCC2)n[nH]1`
[reply] < 1000 nM

[ask] What about `O=C(NCc1n[nH]c(-c2cccs2)n1)c1ccccc1N1CCC(F)(F)CC1` ?
[reply] 1000 to 10000 nM
